Below, each entry is listed alongside its reported pIC50.
system-name: His-tagged Parp-1 (Homo sapiens)
Sequence (P09874 whole entry): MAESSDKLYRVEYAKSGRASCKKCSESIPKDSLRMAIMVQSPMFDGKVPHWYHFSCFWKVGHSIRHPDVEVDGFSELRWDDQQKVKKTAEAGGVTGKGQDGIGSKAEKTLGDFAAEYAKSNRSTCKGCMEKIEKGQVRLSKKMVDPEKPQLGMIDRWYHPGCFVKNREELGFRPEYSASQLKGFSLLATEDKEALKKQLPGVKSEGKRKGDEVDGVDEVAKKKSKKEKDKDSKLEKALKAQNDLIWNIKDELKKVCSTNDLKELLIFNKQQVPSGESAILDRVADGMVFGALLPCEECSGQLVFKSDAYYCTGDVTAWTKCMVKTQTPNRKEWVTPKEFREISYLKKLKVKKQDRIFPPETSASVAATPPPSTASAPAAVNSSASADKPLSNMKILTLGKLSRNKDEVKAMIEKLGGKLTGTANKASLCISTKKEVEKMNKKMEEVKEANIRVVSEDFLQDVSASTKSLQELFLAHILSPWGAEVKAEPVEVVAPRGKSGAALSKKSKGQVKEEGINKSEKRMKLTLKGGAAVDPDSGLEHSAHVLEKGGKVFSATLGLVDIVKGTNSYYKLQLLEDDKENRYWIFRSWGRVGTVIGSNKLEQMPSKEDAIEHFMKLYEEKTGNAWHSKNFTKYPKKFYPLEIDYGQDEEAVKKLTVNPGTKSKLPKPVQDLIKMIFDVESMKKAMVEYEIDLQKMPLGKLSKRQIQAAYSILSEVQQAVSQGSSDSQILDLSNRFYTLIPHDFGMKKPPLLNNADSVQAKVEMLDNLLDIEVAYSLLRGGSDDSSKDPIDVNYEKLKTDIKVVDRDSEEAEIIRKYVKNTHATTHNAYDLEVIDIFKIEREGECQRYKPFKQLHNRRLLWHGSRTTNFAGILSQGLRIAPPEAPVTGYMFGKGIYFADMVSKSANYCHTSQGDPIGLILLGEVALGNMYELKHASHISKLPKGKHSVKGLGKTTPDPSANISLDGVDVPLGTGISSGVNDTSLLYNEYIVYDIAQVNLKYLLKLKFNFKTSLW
pIC50: −log10 of the molar value.

INSERT INTO measurements (compound, observed_value) VALUES
  ('Cc1cc2c(=O)[nH]c(-c3ccc(C(C)(C)O)cc3)cn2c1 [Compound A56]', '5.52 to 6.52'),
  ('O=c1[nH]c(-c2ccc(C3(O)CCC3)cc2)cn2cccc12 [Compound A111]', '5.52 to 6.52'),
  ('COc1cccc(-c2cn3cccc3c(=O)[nH]2)c1 [Compound A4]', '5.52 to 6.52');

Q: Find the measured pIC50: item CN1CCC(c2ccc(-c3cn4cccc4c(=O)[nH]3)cc2)C1 (stereo not shown) [Compound A80] , target or system His-tagged Parp-1 (Homo sapiens).
A: 4.30 to 5.52

Q: Find the measured pIC50: item CN1CCC(c2ccc(-c3cn4cccc4c(=O)[nH]3)cc2)CC1 [Compound A79] , target or system His-tagged Parp-1 (Homo sapiens).
A: 4.30 to 5.52

Q: Find the measured pIC50: item CC(C)(O)c1ccc(-c2cn3cc(Cl)cc3c(=O)[nH]2)cc1 [Compound A60] , target or system His-tagged Parp-1 (Homo sapiens).
A: 5.52 to 6.52

Q: Find the measured pIC50: item CC1(c2ccc(-c3cn4cc(F)cc4c(=O)[nH]3)cc2)CCCO1 (stereo not shown) [Compound A73] , target or system His-tagged Parp-1 (Homo sapiens).
A: 5.52 to 6.52

Q: Find the measured pIC50: item O=c1[nH]c(-c2ccc([N+](=O)[O-])cc2)cn2cccc12 [Compound A6] , target or system His-tagged Parp-1 (Homo sapiens).
A: 5.52 to 6.52

Q: Find the measured pIC50: item O=c1[nH]c(-c2ccc(C3CCNC3)cc2)cn2cccc12 (stereo not shown) [Compound A76] , target or system His-tagged Parp-1 (Homo sapiens).
A: 5.52 to 6.52

Q: Find the measured pIC50: item CC(C)(N)c1ccc(-c2cn3cc(F)cc3c(=O)[nH]2)cc1 [Compound A72] , target or system His-tagged Parp-1 (Homo sapiens).
A: > 6.52

Q: Find the measured pIC50: item CC(C)(C)c1ccc(-c2cn3cc(F)cc3c(=O)[nH]2)cc1 [Compound A35] , target or system His-tagged Parp-1 (Homo sapiens).
A: 4.30 to 5.52

Q: Find the measured pIC50: item CC(C)(O)c1ccc(-c2cn3cc(F)cc3c(=O)[nH]2)cc1 [Compound A59] , target or system His-tagged Parp-1 (Homo sapiens).
A: 5.52 to 6.52

Q: Find the measured pIC50: item CC(C)(F)c1ccc(-c2cn3cc(F)cc3c(=O)[nH]2)cc1 [Compound A63] , target or system His-tagged Parp-1 (Homo sapiens).
A: 5.52 to 6.52

====

pIC50: −log10 of the molar value.
List of pIC50 tested on GST-tagged Tankyrase-1 (1023-1327 aa) (Homo sapiens).
Sequence (O95271 1023-1327): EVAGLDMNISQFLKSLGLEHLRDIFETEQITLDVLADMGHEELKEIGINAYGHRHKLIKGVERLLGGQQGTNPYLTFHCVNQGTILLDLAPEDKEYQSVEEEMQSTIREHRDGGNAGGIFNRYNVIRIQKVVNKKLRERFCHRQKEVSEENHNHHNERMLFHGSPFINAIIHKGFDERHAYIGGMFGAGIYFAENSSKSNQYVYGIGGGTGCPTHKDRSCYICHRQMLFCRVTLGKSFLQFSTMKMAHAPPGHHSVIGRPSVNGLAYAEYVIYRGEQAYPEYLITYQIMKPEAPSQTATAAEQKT

Examples from the recorded data:
INSERT INTO assay_data (compound, recorded_endpoint, observed_value) VALUES
  ('O=c1[nH]c(-c2ccc(C3(O)CCNCC3)cc2)cn2cccc12 [Compound A99]', 'pIC50', '5.52 to 6.52'),
  ('O=c1[nH]c(-c2ccc3c(c2)OCO3)cn2cccc12 [Compound A9]', 'pIC50', '5.52 to 6.52');

Q: Find the measured pIC50: item Cc1ccc2c(=O)[nH]c(-c3ccc(Br)cc3)cn12 [Compound A94] , target or system GST-tagged Tankyrase-1 (1023-1327 aa) (Homo sapiens).
A: > 6.52

Q: Find the measured pIC50: item CC(C)(OCCO)c1ccc(-c2cn3cc(F)cc3c(=O)[nH]2)cc1 [Compound A70] , target or system GST-tagged Tankyrase-1 (1023-1327 aa) (Homo sapiens).
A: > 6.52

Q: Find the measured pIC50: item CC(C)(C)c1ccc(-c2cn3nc(C(F)(F)F)cc3c(=O)[nH]2)cc1 [Compound A55] , target or system GST-tagged Tankyrase-1 (1023-1327 aa) (Homo sapiens).
A: > 6.52

Q: Find the measured pIC50: item CC(C)(O)c1ccc(-c2cn3cc(Cl)cc3c(=O)[nH]2)cc1 [Compound A60] , target or system GST-tagged Tankyrase-1 (1023-1327 aa) (Homo sapiens).
A: > 6.52

Q: Find the measured pIC50: item CN1CCC(c2ccc(-c3cn4cc(Cl)cc4c(=O)[nH]3)cc2)CC1 [Compound A82] , target or system GST-tagged Tankyrase-1 (1023-1327 aa) (Homo sapiens).
A: > 6.52

Q: Find the measured pIC50: item CN1CCC(c2ccc(-c3cn4cccc4c(=O)[nH]3)cc2)C1 (centres unmarked) [Compound A80] , target or system GST-tagged Tankyrase-1 (1023-1327 aa) (Homo sapiens).
A: 5.52 to 6.52
